Taken from patent US4009273A.

molecules and their reported LD50 at 168 h
experiment: Acute toxicity; conditions: mouse, in vivo, ip, Swiss mice, observed for a week
PROPERTY: LD50 at 168 h

In [3]: df
Out[3]:
                                    molecule       property  reported_value
 0  O=C(Oc1ccccc1[N+](=O)[O-])N1C2Cc3ccccc3C1c1ccccc12 (centres unmarked) [Example 8]  LD50 at 168 h    > 1000 mg/kg
 1  C[N+]1(C)C2Cc3ccccc3C1c1ccccc12 (centres unmarked) [Example 16]  LD50 at 168 h     > 200 mg/kg
 2  NCCN1C2Cc3ccccc3C1c1ccccc12 (centres unmarked) [Example 30]  LD50 at 168 h      ~150 mg/kg
 3  CC(=O)N1C2Cc3ccccc3C1c1ccccc12 (centres unmarked) [Example 10]  LD50 at 168 h     > 500 mg/kg
 4  c1ccc(CN2C3Cc4ccccc4C2c2ccccc23)cc1 (centres unmarked) [Example 23]  LD50 at 168 h     > 400 mg/kg
 5  ClCCN1C2Cc3ccccc3C1c1ccccc12 (centres unmarked) [Example 27]  LD50 at 168 h      ~150 mg/kg
 6  CCCN1C2Cc3ccccc3C1c1ccccc12 (centres unmarked) [Example 24]  LD50 at 168 h      ~250 mg/kg
 7  CN1C2Cc3ccccc3C1c1ccc(Cl)cc12 (centres unmarked) [Example 26]  LD50 at 168 h      ~350 mg/kg
 8  CN(C)CCN1C2Cc3ccccc3C1c1ccccc12 (centres unmarked) [Example 29]  LD50 at 168 h      ~180 mg/kg
 9  CNCCN1C2Cc3ccccc3C1c1ccccc12 (centres unmarked) [Example 28]  LD50 at 168 h      ~150 mg/kg
10  CNCC(=O)N1C2Cc3ccccc3C1c1ccccc12 (centres unmarked) [Example 25]  LD50 at 168 h      ~300 mg/kg
